- Test system: MDA-MB-231 breast
- Assay overview: NCI-60 one-dose screen, 48 h (100 = growth as untreated, 0 = no growth, -100 = all killed)
- Experimental context: 10 µM unless noted
The panel holds about 83,000 compounds, 20% with a hit somewhere; the sample as a whole holds those more often.
Property label: growth (%)
State just the number; it will be interpreted in %.

Known results for molecules:
{"columns": ["Molecule", "System name", "growth (%)"],
 "data": [
  ["COc1ccc(OC)c(Nc2nc3nonc3nc2Nc2cccc(Br)c2)c1", "MDA-MB-231 breast", -8.18],
  ["O=C1CCC(N2C(=O)c3cccc(NCCCC4CCN(CCNC(=O)c5cc6c(o5)C(=O)c5ccccc5C6=O)CC4)c3C2=O)C(=O)N1 (stereo not given)", "MDA-MB-231 breast", -25.2],
  ["CC(=O)Nc1ccc(-c2cc3c(NCc4ccc(F)cc4)ncnc3s2)cc1", "MDA-MB-231 breast", 83],
  ["CCN1CCN(c2ccc(Nc3cc(-c4cccnc4Nc4c(Cl)c(OC)cc(OC)c4Cl)ncn3)cc2)CC1", "MDA-MB-231 breast", 85.8]
]}

Now look at this entry.
// sample `COc1ccccc1NC(=O)Nc1ccc(-c2nc3ccccc3o2)cc1` , its growth was 98.5
